# maps each entry to its inhibition at 10 µM
# experimental-target: serotonin (5-HT) reuptake (Rattus norvegicus, UniProt P31652)
# Construct: synaptosomes are freshly isolated from areas of the rat brain; from tissue; host or cells: rat brain synaptosomes (P2 fraction)
# Sequence (P31652 whole entry): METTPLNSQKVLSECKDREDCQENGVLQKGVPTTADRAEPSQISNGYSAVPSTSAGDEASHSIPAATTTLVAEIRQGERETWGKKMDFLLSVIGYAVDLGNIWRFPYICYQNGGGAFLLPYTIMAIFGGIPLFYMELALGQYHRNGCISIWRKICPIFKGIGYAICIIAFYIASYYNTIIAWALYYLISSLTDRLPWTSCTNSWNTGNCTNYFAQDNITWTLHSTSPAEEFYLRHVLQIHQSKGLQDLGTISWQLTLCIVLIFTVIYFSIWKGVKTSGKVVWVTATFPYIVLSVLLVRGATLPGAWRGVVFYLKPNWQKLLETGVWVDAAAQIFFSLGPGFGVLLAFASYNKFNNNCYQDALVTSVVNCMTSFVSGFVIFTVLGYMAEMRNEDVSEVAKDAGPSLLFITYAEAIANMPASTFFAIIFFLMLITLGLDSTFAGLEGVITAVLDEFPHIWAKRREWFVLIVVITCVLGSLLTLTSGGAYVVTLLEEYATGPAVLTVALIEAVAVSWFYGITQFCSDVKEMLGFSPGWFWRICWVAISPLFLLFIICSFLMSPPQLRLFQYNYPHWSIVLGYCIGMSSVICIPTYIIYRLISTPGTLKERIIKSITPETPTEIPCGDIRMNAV
# experiment-summary: Inhibition of serotonin (5HT) reuptake in synaptosomes from rat brain
# Type: biochemical
# run-parameters: test concentration of 10 μM; read-out: 5-HT (inhibition of reuptake of serotonin, % inhibition)
The figure you give is taken to be in %; do not add the unit.

Sample answers from the record:
COc1ccc(S(=O)(=O)N2CCCCC2COCC(=O)NC2CCC(C(c3ccccc3)N(C)C)CC2)cc1OC (stereo not shown) = 88
CCN(CCOCC(=O)NCCC1CCC(C(c2cccs2)N(C)C)CC1)S(=O)(=O)c1c(C)cc(OC)c(C)c1C (stereo not shown) = 95
CN(C)C(c1cccc(F)c1)C1CCC(NC(=O)COC2CCN(S(=O)(=O)c3ccc(F)cc3)C2)CC1 (stereo not shown) = 79

The compound listed as COc1cc(C)c(S(=O)(=O)N(C)CCOCC(=O)NCCC2CCC(C(c3cccs3)N(C)C)CC2)c(C)c1C (stereo not shown) shows inhibition at 10 µM equal to 91

* * *

# experimental-target: human bradykinin 1 receptor (B1R) (Homo sapiens)
# Construct: expressed in transfected cells; host or cells: CHO K1 cells
# experiment-summary: Functional investigation on the human bradykinin 1 receptor (B1R), Ca2+ FLIPR assay in CHO K1 hB1R cells
# Assay type: cell-based
# run-parameters: B1R antagonism human; test substance 10 μM; Ca2+ FLIPR, CHO K1 hB1R cells
Hi, to clarify the labels: True covers B1R Ant. h [10 μM] % Inhibition from 20% upward, False covers anything below 20%.

CN(C)C(c1ccc(F)cc1)C1CCC(NC(=O)COC2CCN(S(=O)(=O)c3cccc(C(F)(F)F)c3)C2)CC1 (stereo not shown) [Example 330] = False
COc1ccc(S(=O)(=O)N(C)CCOCC(=O)NCCC2CCC(C(c3ccc(F)cc3)N(C)C)CC2)cc1OC (stereo not shown) [Example 484] = False
COc1cc(C)c(S(=O)(=O)N2CCN(CCOCC(=O)NC3CCC(C(c4ccc(F)cc4)N(C)C)CC3)CC2)c(C)c1C (stereo not shown) [Example 222] = True
CN(C)C(c1ccc(Cl)cc1)C1CCC(CNC(=O)COC2CCN(S(=O)(=O)c3ccc(Cl)cc3)C2)CC1 (stereo not shown) [Example 384] = True
COc1cc(C)c(S(=O)(=O)N2CCN(CCOCC(=O)NCC3CCC(C(c4ccc(F)cc4)N(C)C)CC3)CC2)c(C)c1C (stereo not shown) [Example 366] = True

Form field: B1R Ant. h [10 μM] % Inhibition at least 20%? Entry: CN(C)C(c1cccc(F)c1)C1CCC(CCNC(=O)COCCN(C)S(=O)(=O)c2ccc(OC(F)(F)F)cc2)CC1 (stereo not shown) [Example 215]
False

Form field: B1R Ant. h [10 μM] % Inhibition at least 20%? Entry: CN(C)C(c1ccccc1)C1CCC(NC(=O)COC2CCN(S(=O)(=O)c3ccccc3)C2)CC1 (stereo not shown) [Example 595]
False

Form field: B1R Ant. h [10 μM] % Inhibition at least 20%? Entry: CN(C)C(c1cccc(F)c1)C1CCC(NC(=O)COCCN(C)S(=O)(=O)c2ccc(F)cc2)CC1 (stereo not shown) [Example 205]
False

Form field: B1R Ant. h [10 μM] % Inhibition at least 20%? Entry: CN(C)C(c1ccc(F)cc1)C1CCC(CCNC(=O)COCC2CCCN(S(=O)(=O)c3ccccc3)C2)CC1 (stereo not shown) [Example 479]
False

Form field: B1R Ant. h [10 μM] % Inhibition at least 20%? Entry: COc1cc(C)c(S(=O)(=O)N(CCOCC(=O)NCCC2CCC(C(c3ccc(Cl)cc3)N(C)C)CC2)Cc2ccccc2)c(C)c1 (stereo not shown) [Example 569]
False

* * *

# maps each entry to its μ (binding on the μ opioid receptor, % inhibition)
# experimental-target: human μ opiate receptor (Homo sapiens)
# Construct: purchased PerkinElmer Life Sciences, Zaventem, Belgium RB-HOM; host or cells: CHO-K1 cells (membrane preparation)
# Sequence (P35372 whole entry): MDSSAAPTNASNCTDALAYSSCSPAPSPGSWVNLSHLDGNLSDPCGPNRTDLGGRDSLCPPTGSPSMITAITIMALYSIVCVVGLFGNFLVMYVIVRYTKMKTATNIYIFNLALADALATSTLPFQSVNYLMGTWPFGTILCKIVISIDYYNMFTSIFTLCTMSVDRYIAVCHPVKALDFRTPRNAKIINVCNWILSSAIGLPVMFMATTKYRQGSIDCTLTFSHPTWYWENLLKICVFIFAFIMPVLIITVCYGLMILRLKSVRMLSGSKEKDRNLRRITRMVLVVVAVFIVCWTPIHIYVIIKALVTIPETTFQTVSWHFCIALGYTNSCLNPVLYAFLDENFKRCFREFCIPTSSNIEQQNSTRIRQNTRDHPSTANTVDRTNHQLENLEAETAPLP
# experiment-summary: Affinity for the human μ opiate receptor ([3H]-naloxone displacement, CHO-K1 receptor membrane preparation, SPA)
# Assay type: binding
# run-parameters: test concentration of 1 μM
The figure you give is taken to be in %; do not add the unit.

Sample answers from the record:
COc1ccc(S(=O)(=O)N2CCCCC2COCC(=O)NC2CCC(C(c3cccc(F)c3)N(C)C)CC2)c(OC)c1 (stereo not shown) = 70
CN(C)C(c1ccc(Cl)cc1)C1CCC(CCNC(=O)COC2CCN(S(=O)(=O)c3ccc(F)cc3)C2)CC1 (stereo not shown) = 47

Record COc1cc(C)c(S(=O)(=O)N(C)CCOCC(=O)NCC2CCC(C(c3ccc(F)cc3)N(C)C)CC2)c(C)c1 (stereo not shown) ; system human μ opiate receptor (Homo sapiens); μ (binding on the μ opioid receptor, % inhibition) = 48

Record COc1ccc(S(=O)(=O)N2CCCC2COCC(=O)NCC2CCC(C(c3cccc(F)c3)N(C)C)CC2)cc1 (stereo not shown) ; system human μ opiate receptor (Homo sapiens); μ (binding on the μ opioid receptor, % inhibition) = 71

Record COc1cc(C)c(S(=O)(=O)N(CCOCC(=O)NCCC2CCC(C(c3cccc(F)c3)N(C)C)CC2)Cc2ccccc2)c(C)c1C (stereo not shown) ; system human μ opiate receptor (Homo sapiens); μ (binding on the μ opioid receptor, % inhibition) = 57

Record Cc1cc(C)c(S(=O)(=O)N(C)CCOCC(=O)NC2CCC(C(c3ccc(F)cc3)N(C)C)CC2)c(C)c1 (stereo not shown) ; system human μ opiate receptor (Homo sapiens); μ (binding on the μ opioid receptor, % inhibition) = 42

Record CN(C)C(CCc1ccccc1)C1CCC(CNC(=O)COC2CCCN(S(=O)(=O)c3ccccc3)C2)CC1 (stereo not shown) ; system human μ opiate receptor (Homo sapiens); μ (binding on the μ opioid receptor, % inhibition) = 29

* * *

# maps each entry to its inhibition at 10 µM
# experimental-target: human bradykinin 1 receptor (B1R) (Homo sapiens, UniProt P46663)
# Construct: expressed in transfected cells; host or cells: CHO K1 cells
# Sequence (P46663 whole entry): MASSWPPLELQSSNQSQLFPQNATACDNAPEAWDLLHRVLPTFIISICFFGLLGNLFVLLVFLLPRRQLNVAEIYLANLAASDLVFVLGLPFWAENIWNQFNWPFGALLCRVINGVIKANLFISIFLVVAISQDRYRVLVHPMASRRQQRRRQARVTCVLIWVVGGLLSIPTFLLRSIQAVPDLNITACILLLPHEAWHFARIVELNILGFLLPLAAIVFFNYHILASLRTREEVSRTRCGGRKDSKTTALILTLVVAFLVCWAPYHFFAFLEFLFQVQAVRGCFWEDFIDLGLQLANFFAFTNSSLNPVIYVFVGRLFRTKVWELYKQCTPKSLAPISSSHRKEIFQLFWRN
# experiment-summary: Functional investigation on the human bradykinin 1 receptor (B1R), Ca2+ FLIPR assay in CHO K1 hB1R cells
# Type: cell-based
# run-parameters: CHO-K1, B1R antagonism human; test substance 10 μM; Ca2+ FLIPR, CHO K1 hB1R cells; read-out: B1R Ant. h [10 μM] % Inhibition
The figure you give is taken to be in %; do not add the unit.

Sample answers from the record:
O=C(COCC1CCCN(S(=O)(=O)c2c(Cl)cc(Cl)cc2Cl)C1)NCC1CCC(C(CCc2ccccc2)N2CCCC2)CC1 (stereo not shown) [Example 759] = 100
O=C(COC1CCN(S(=O)(=O)c2c(Cl)cc(Cl)cc2Cl)C1)NCC1CCC(C(c2ccccc2)N2CCOCC2)CC1 (stereo not shown) [Example 743] = -3
COc1ccc(S(=O)(=O)N2CCCCC2COCC(=O)NCC2CCC(C(c3cccc(F)c3)N(C)C)CC2)cc1 (stereo not shown) [Example 179] = 65

// switching to the query compound
The compound listed as CN(C)C(c1cccs1)C1CCC(CNC(=O)COCCN(C)S(=O)(=O)c2cccc(C(F)(F)F)c2)CC1 (stereo not shown) [Example 92] shows inhibition at 10 µM equal to 31

* * *

# experimental-target: human μ opiate receptor (Homo sapiens)
# Construct: purchased PerkinElmer Life Sciences, Zaventem, Belgium RB-HOM; host or cells: CHO-K1 cells (membrane preparation)
# experiment-summary: Affinity for the human μ opiate receptor ([3H]-naloxone displacement, CHO-K1 receptor membrane preparation, SPA)
# Assay type: binding
# run-parameters: test concentration of 1 μM; read-out: μ (binding on the μ opioid receptor, % inhibition)
assay-endpoint: inhibition at 1 µM
Show the value, then the unit it is measured in.

Sample answers from the record:
CN(C)C(c1cccc(F)c1)C1CCC(NC(=O)COCCN(Cc2ccccc2)S(=O)(=O)c2ccccc2)CC1 (stereo not shown) = 85%
COc1ccc(S(=O)(=O)N2CCC(OCC(=O)NCC3CCC(C(c4cccc(F)c4)N(C)C)CC3)C2)cc1OC (stereo not shown) = 91%
COc1ccc(S(=O)(=O)N2CCC(OCC(=O)NCC3CCC(C(c4cccs4)N(C)C)CC3)C2)cc1OC (stereo not shown) = 97%

// switching to the query molecule
The molecule listed as Cc1cc(C)c(S(=O)(=O)N2CCC(OCC(=O)NCC3CCC(C(c4cccs4)N(C)C)CC3)C2)c(C)c1 (stereo not shown) shows inhibition at 1 µM equal to 97%

* * *

# experimental-target: human μ opiate receptor (Homo sapiens)
# Construct: purchased PerkinElmer Life Sciences, Zaventem, Belgium RB-HOM; host or cells: CHO-K1 cells (membrane preparation)
# experiment-summary: Affinity for the human μ opiate receptor ([3H]-naloxone displacement, CHO-K1 receptor membrane preparation, SPA)
# Format: binding
# run-parameters: test concentration of 1 μM; 1 µM
# maps each entry to its μ (binding on the μ opioid receptor, % inhibition)
Show the value, then the unit it is measured in.

COc1ccc(S(=O)(=O)N2CCCCC2COCC(=O)NCC2CCC(C(c3ccc(F)cc3)N(C)C)CC2)cc1OC (single isomer, unassigned) [Example 534] = 24%

The compound listed as COc1ccc(S(=O)(=O)N2CCCCC2COCC(=O)NCC2CCC(C(CCc3ccccc3)N(C)C)CC2)cc1OC (stereo not shown) [Example 570] shows μ (binding on the μ opioid receptor, % inhibition) equal to 16%

The compound listed as CC(Oc1ccccc1)C(=O)NC1CCC(C(CCc2ccccc2)N(C)C)CC1 (stereo not shown) [Example 545] shows μ (binding on the μ opioid receptor, % inhibition) equal to 30%

The compound listed as CN(C)C(CCc1ccccc1)C1CCC(CNC(=O)COCCN(C)S(=O)(=O)c2c(Cl)cccc2Cl)CC1 (stereo not shown) [Example 580] shows μ (binding on the μ opioid receptor, % inhibition) equal to 13%

The compound listed as COc1ccc(S(=O)(=O)N2CCCCC2COCC(=O)NCCC2CCC(C(c3cccc(F)c3)N(C)C)CC2)cc1OC (stereo not shown) shows μ (binding on the μ opioid receptor, % inhibition) equal to 9%

The compound listed as COc1ccc(S(=O)(=O)N2CCCCC2COCC(=O)NCC2CCC(C(CCc3ccccc3)N(C)C)CC2)c(OC)c1 (stereo not shown) [Example 486] shows μ (binding on the μ opioid receptor, % inhibition) equal to 36%

The compound listed as CN(C)C(CCc1ccccc1)C1CCC(CNC(=O)COCCN(C)S(=O)(=O)c2c(Cl)cccc2Cl)CC1 (stereo not shown) [Example 476] shows μ (binding on the μ opioid receptor, % inhibition) equal to 47%

Values were extracted from patent US8106055B2.
